- Experimental Details: Rat pharmacokinetic study of ziprasidone and ziprasidone sulfoxide with resveratrol or quercetin
- Measurement Context: male, Sprague-Dawley, plasma, po, 15 mg/kg, Tmax, ziprasidone 15 mg/kg oral + resveratrol 50 mg/kg i.g., rats, n=6
Readout Label: Tmax
Put your answer as a value accompanied by its unit after it.

Input: // query Tmax value for entry O=C1Cc2cc(CCN3CCN(c4nsc5ccccc45)CC3)c(Cl)cc2N1
Output: 4.33 h

---

- Tested on: rat liver microsomes (RLM)
- Experimental Details: Inhibitor screening on ziprasidone metabolism in RLM
- Assay type: in vitro ADME
- Measurement Context: 100 μM inhibitor, 0.3 mg/mL RLM, ziprasidone 10 μM, 20 min
Could you please report measured Relative activity (%) for the items listed next?
Answers are plain numbers, in %.

The following compounds have reported results that may help.
[[record]]
compound = "CC(C)(O)[C@H]1CC[C@@](C)([C@H]2[C@@H](O)C[C@@]3(C)[C@@H]4C[C@H](O[C@@H]5O[C@H](CO)[C@@H](O)[C@H](O)[C@H]5O)[C@H]5C(C)(C)[C@@H](O[C@@H]6OC[C@@H](O)[C@H](O)[C@H]6O)CC[C@@]56C[C@@]46CC[C@]23C)O1 [Astragaloside A]"
value_measured = 107.37

[[record]]
compound = "CCCCc1nc(Cl)c(CO)n1Cc1ccc(-c2ccccc2-c2nn[nH]n2)cc1 [Losartan potassium]"
value_measured = 35.58

[[record]]
compound = "COc1ccc(-c2coc3cc(O)ccc3c2=O)cc1O [Calycosin]"
value_measured = 104.22


Continue with the next compound.
Input: # value lookup — system rat liver microsomes (RLM), readout Relative activity (%), item COc1c(O[C@@H]2O[C@H](C(=O)O)[C@@H](O)[C@H](O)[C@H]2O)cc(O)c2c(=O)cc(-c3ccccc3)oc12 [Wogonoside]
Output: 92.55

---

- Tested System: rat liver microsomes (RLM)
- Experimental Details: Kinetics inhibitory assay of quercetin on ziprasidone metabolism in RLM
- Assay type: in vitro ADME
- Measurement Context: RLM, Lineweaver-Burk secondary plot
Readout Label: Ki (µM)
One number for each entry, in µM.

Input: # value lookup — system rat liver microsomes (RLM), readout Ki, item O=c1c(O)c(-c2ccc(O)c(O)c2)oc2cc(O)cc(O)c12 [quercetin, Quercetin]
Output: 30.7

---

- Experimental Details: Rat pharmacokinetic study of ziprasidone and ziprasidone sulfoxide with resveratrol or quercetin
- Measurement Context: male, Sprague-Dawley, plasma, po, 15 mg/kg, Cmax, ziprasidone 15 mg/kg oral, control (corn oil), rats, n=6
Readout Label: Cmax

Input: // query Cmax value for entry O=C1Cc2cc(CCN3CCN(c4nsc5ccccc45)CC3)c(Cl)cc2N1 [ziprasidone, Ziprasidone]
Output: 963 ng/mL

---

- Experimental Details: Rat pharmacokinetic study of ziprasidone and ziprasidone sulfoxide with resveratrol or quercetin
- Measurement Context: male, Sprague-Dawley, plasma, po, 15 mg/kg, Cmax, ziprasidone 15 mg/kg oral + resveratrol 50 mg/kg i.g., rats, n=6
Readout Label: Cmax (ng/mL)
One number for each entry, in ng/mL.

Input: // query Cmax value for entry O=C1Cc2cc(CCN3CCN(c4nsc5ccccc45)CC3)c(Cl)cc2N1
Output: 1160

---

- System: rat liver microsomes (RLM)
- Experimental Details: Inhibitor screening on ziprasidone metabolism in RLM
- Assay type: in vitro ADME
- Measurement Context: 100 μM inhibitor, 0.3 mg/mL RLM, ziprasidone 10 μM, 20 min
Classify as follows. Reported Relative activity (%) greater than or equal to 60%: True. Reported Relative activity (%) below: False.

Input: State whether the measured Relative activity (%) reaches 60%, counting equality as reaching it, for CC(C)(O)CNc1nc(Nc2ccnc(C(F)(F)F)c2)nc(-c2cccc(C(F)(F)F)n2)n1
Output: False

Input: State whether the measured Relative activity (%) reaches 60%, counting equality as reaching it, for CCCc1nc2c(C)cc(-c3nc4ccccc4n3C)cc2n1Cc1ccc(-c2ccccc2C(=O)O)cc1
Output: True

Input: State whether the measured Relative activity (%) reaches 60%, counting equality as reaching it, for C=C[C@H]1C[N@@]2CC[C@H]1C[C@@H]2[C@@H](O)c1ccnc2ccc(OC)cc12
Output: True

Input: State whether the measured Relative activity (%) reaches 60%, counting equality as reaching it, for O=C(NC[C@H]1CN(c2ccc(N3CCOCC3=O)cc2)C(=O)O1)c1ccc(Cl)s1
Output: True

Input: State whether the measured Relative activity (%) reaches 60%, counting equality as reaching it, for COc1ccc(C(C)=O)c(O)c1
Output: True
